Target: human synovial fluid PLA2 (Homo sapiens, UniProt P14555)
Sequence (P14555 21-144): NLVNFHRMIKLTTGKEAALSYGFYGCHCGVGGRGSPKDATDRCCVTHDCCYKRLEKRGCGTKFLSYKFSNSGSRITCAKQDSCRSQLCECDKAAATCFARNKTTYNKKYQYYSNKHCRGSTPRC
PROPERTY_LABEL: IC50

// field: IC50; key: O=C1O/C(=C/Br)CCC1c1cccc2ccccc12 (stereo not shown) ; value = > 100 µM

---

Would you mind telling me the reported pIC50 of each entry?
Tested on: HL-60 cells
Test: HL-60 cell assay for LTB4 and PGE2 production (calcium ionophore A23187 induced)
Format: cell-based
Details: Homo sapiens, HL-60; LTB4 production, A23187 5×10^-6 M; > : inhibition but not enough for an IC50; read-out: HL-60 LTB4 IC50
Protocol: An additional whole cell assay was also performed. In this assay, HL-60 cells are induced with the calcium ionophore A23187 in the presence of varying amounts of inhibitor, and the amounts of the prostaglandin E2 (PGE2) and leukotriene B4 (LTB4) which form are measured. Calcium ionophore A23187 activates a calcium-dependent PLA2 which leads to the enhanced production of the arachidonic acid metabolites PGE2 and LTB4. […]
Answers are plain numbers, as −log10 of the molar value.

O=C1O/C(=C/Br)CCC1c1ccccc1 (stereo not shown)	5.96

// field: pIC50; key: O=C1O/C(=C/I)CCC1c1cccc2ccccc12 (stereo not shown) ; value = 4.93
